Reported MIC values follow for various compounds
Tested on: E. coli NIHJ JC-2
Test: Sensitivity test (agar dilution)
Format: cell-based, Escherichia coli
Conditions: Escherichia coli, NIHJJC2, drug alone; E. coli NIHJ JC-2; read-out: MIC alone
Description: […] FIC index based on MIC value was calculated. […] Namely, when FIC index calculated by the following formula is equal or less than 1, the enhanced effect of the combination drug in said ratio is considered as positive. […] Formula of FIC index: FIC index=(MIC of Drug A in combination/MIC of Drug A alone)+(MIC of Drug B in combination/MIC of Drug B alone) N.C. in tables means being not calculated.
Only the number, expressed in µg/mL, is required.

>>> recorded_result("C[C@H]1[C@H](NC(=O)/C(=N\\OC(C)(C)C(=O)O)c2csc(N)n2)C(=O)N1S(=O)(=O)O [AZT, aztreonam]")
0.063
>>> recorded_result("C[C@@H](O)[C@H]1C(=O)N2C(C(=O)[O-])=C(SC3Cn4cnc[n+]4C3)[C@H](C)[C@H]12 (stereo partly shown) [BIPM, biapenem]")
0.031
>>> recorded_result("CC(C)(O/N=C(\\C(=O)N[C@@H]1C(=O)N2C(C(=O)[O-])=C(C[n+]3ccccc3)CS[C@H]12)c1csc(N)n1)C(=O)O [CAZ, ceftazidime]")
0.25
>>> recorded_result("CCN1CCN(C(=O)N[C@@H](C(=O)N[C@@H]2C(=O)N3[C@@H]2SC(C)(C)[C@@H]3C(=O)O)c2ccccc2)C(=O)C1=O [PIPC, piperacillin]")
0.25
>>> recorded_result("CC(=N)N1CC[C@H](SC2=C(C(=O)O)N3C(=O)[C@H]([C@@H](C)O)[C@H]3C2)C1 [PAPM, panipenem]")
0.25

Ask: Please report the recorded MIC for C[C@H]1C=C(c2csc(SC3=C(C(=O)O)N4C(=O)[C@H]([C@@H](C)O)[C@H]4[C@H]3C)n2)CN1 [SM] .
Result: 0.125

Ask: Please report the recorded MIC for C[C@@H](O)[C@H]1C(=O)N2C(C(=O)O)=C(S[C@@H]3CN[C@H](CNS(N)(=O)=O)C3)[C@H](C)[C@H]12 [DRPM, doripenem] .
Result: 0.016

====

system: S. aureus SP-7928 (homo-MRSA); assay: Sensitivity test (agar dilution); format: cell-based, Staphylococcus aureus; conditions: Staphylococcus aureus, MRSA, drug alone; S. aureus SP-7928 (homo-MRSA); read-out: MIC alone
METRIC: MIC

>>> recorded_result("C[C@@H](O)[C@H]1C(=O)N2C(C(=O)[O-])=C(SC3Cn4cnc[n+]4C3)[C@H](C)[C@H]12 (stereo partly shown)")
"> 32 µg/mL"

Ask: Recall the recorded MIC for `C[C@H]1[C@H](NC(=O)/C(=N\OC(C)(C)C(=O)O)c2csc(N)n2)C(=O)N1S(=O)(=O)O` with S. aureus SP-7928 (homo-MRSA) and state it.
Result: > 32 µg/mL

Ask: Recall the recorded MIC for `CC(=N)N1CC[C@H](SC2=C(C(=O)O)N3C(=O)[C@H]([C@@H](C)O)[C@H]3C2)C1` with S. aureus SP-7928 (homo-MRSA) and state it.
Result: > 32 µg/mL

Ask: Recall the recorded MIC for `C[C@H]1C=C(c2csc(SC3=C(C(=O)O)N4C(=O)[C@H]([C@@H](C)O)[C@H]4[C@H]3C)n2)CN1` with S. aureus SP-7928 (homo-MRSA) and state it.
Result: 2 µg/mL

Ask: Recall the recorded MIC for `CC(C)(O/N=C(\C(=O)N[C@@H]1C(=O)N2C(C(=O)[O-])=C(C[n+]3ccccc3)CS[C@H]12)c1csc(N)n1)C(=O)O` with S. aureus SP-7928 (homo-MRSA) and state it.
Result: > 32 µg/mL

Ask: Recall the recorded MIC for `C[C@@H](O)[C@H]1C(=O)N2C(C(=O)O)=C(S[C@@H]3CN[C@H](CNS(N)(=O)=O)C3)[C@H](C)[C@H]12` with S. aureus SP-7928 (homo-MRSA) and state it.
Result: 32 µg/mL

Ask: Recall the recorded MIC for `CCN1CCN(C(=O)N[C@@H](C(=O)N[C@@H]2C(=O)N3[C@@H]2SC(C)(C)[C@@H]3C(=O)O)c2ccccc2)C(=O)C1=O` with S. aureus SP-7928 (homo-MRSA) and state it.
Result: > 32 µg/mL
